system: Bacillus subtilis; test: Antimicrobial activity against Bacillus subtilis after 24 hrs by microdilution susceptibility test; assay type: functional
This listing pairs compounds with measured MIC.
Form entry: value (µg/mL) — number only.

Examples from the recorded data:
* N#C/C(=C\c1ccc(Cl)cc1)c1ccccc1C#N | 50
* N#Cc1ccccc1C(/N=N/c1ccc(Cl)cc1)C(N)=O (stereo unspecified) | 6.25
* CCOC(=O)c1c2[nH]c(=N)c3ccccc3c2nn1-c1ccc(Cl)cc1 | 25
* CCOC(=O)c1c2[nH]c(=N)c3ccccc3c2nn1-c1ccc([N+](=O)[O-])cc1 | 25
* N#Cc1ccccc1C(C#N)/N=N/c1ccccc1 (stereo unspecified) | 12.5

Field: next compound
Reported MIC of CCOC(=O)c1c2[nH]c(=N)c3ccccc3c2nn1-c1ccc(C)cc1 : 25

---

This listing pairs compounds with measured MIC.
system: Bacillus subtilis; assay: Antimicrobial activity against Bacillus subtilis after 24 hrs by microdilution susceptibility test; type: functional
# output: number + unit

Examples from the recorded data:
* CCOC(=O)c1c2[nH]c(=N)c3ccccc3c2nn1-c1ccccc1 | 25 µg/mL
* CC(=O)OCC1=C(C(=O)O)N2C(=O)[C@@H](NC(=O)Cc3cccs3)[C@H]2SC1 | 6.25 µg/mL
* N#Cc1ccccc1C(/N=N/c1ccc([N+](=O)[O-])cc1)C(N)=O (stereo not given) | 6.25 µg/mL

Bacillus subtilis data for Cc1ccc(/N=N/C(C#N)c2ccccc2C#N)cc1 (stereo not given) ; its MIC: 12.5 µg/mL

Bacillus subtilis data for N=c1[nH]c2nn(-c3ccc(Cl)cc3)nc2c2ccccc12 ; its MIC: 25 µg/mL

---

tested on: Bacillus subtilis; test: Antimicrobial activity against Bacillus subtilis after 24 hrs by microdilution susceptibility test; assay type: functional
observedProperty: log10 MIC (log10 of the value in mg/L)
Hey, these are logged values: log10 of MIC, mg/L being the unit before logging.

Examples from the recorded data:
- Cc1ccc(/N=N/C(C(N)=O)c2ccccc2C#N)cc1 (stereo unspecified): 1.40
- N=c1[nH]c2nn(-c3ccc([N+](=O)[O-])cc3)nc2c2ccccc12: 1.70
- COc1ccc(/C=C(\C#N)c2ccccc2C#N)cc1: 2.00

Reported log10 MIC of N=c1[nH]c2nn(-c3ccccc3)nc2c2ccccc12 : 1.70

Reported log10 MIC of O=C(N[C@H](CO)[C@H](O)c1ccc([N+](=O)[O-])cc1)C(Cl)Cl : 0.49

Reported log10 MIC of N#CCc1ccccc1C#N : 2.00

Reported log10 MIC of COc1ccc(/N=N/C(C#N)c2ccccc2C#N)cc1 (stereo unspecified) : 0.80

Reported log10 MIC of CC1(C)S[C@@H]2[C@H](NC(=O)[C@H](N)c3ccccc3)C(=O)N2[C@H]1C(=O)O : 0.49

Reported log10 MIC of COc1cc(-c2c(C#N)c(N)c3ccccc3c2C#N)cc(OC)c1OC : 1.70

Reported log10 MIC of COc1cc(/C=C(\C#N)c2ccccc2C#N)cc(OC)c1OC : 2.00

Reported log10 MIC of N#Cc1ccccc1C(/N=N/c1ccccc1)C(N)=O (stereo unspecified) : 1.10

---

tested on: Bacillus thuringiensis; assay: Antimicrobial activity against Bacillus thuringiensis after 24 hrs by microdilution susceptibility test; format: functional
observedProperty: MIC
# output: number + unit

* CCOC(=O)c1c2[nH]c(=N)c3ccccc3c2nn1-c1ccc([N+](=O)[O-])cc1 | 25 µg/mL
* N#Cc1ccccc1C(/N=N/c1ccc(Cl)cc1)C(N)=O (stereo not drawn) | 12.5 µg/mL

Reported MIC of N#Cc1ccccc1C(/N=N/c1ccccc1)C(N)=O (stereo not drawn) : 12.5 µg/mL

Reported MIC of N#CC1c2ccccc2C(=N)C(C#N)(C#N)C1c1ccc(Cl)cc1 (stereo not drawn) : 50 µg/mL

Reported MIC of CC(=O)OCC1=C(C(=O)O)N2C(=O)[C@@H](NC(=O)Cc3cccs3)[C@H]2SC1 [CEPHALOTHIN] : 6.25 µg/mL

This collection of values is drawn from ChEMBL document CHEMBL2331322.
